Can you tell me self-aminoacylation for the items I'm about to list?
# System: biotinyl-Leu-oxazolone
# assay-overview: self-aminoacylation, catalytic enhancement (BLO) (fold over background); higher = more active; k-Seq, kA / k0A0; sequences stand for … in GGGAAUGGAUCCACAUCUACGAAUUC…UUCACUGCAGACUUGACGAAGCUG
Variants at the floor of the assay were thinned out.

residue-string: CUACUUAAACCAAUCGGUCUG [Fam1A.1 aminoacylation ribozyme variant]
target-entity: biotinyl-Leu-oxazolone
self-aminoacylation: 0.594

residue-string: CAACACUCCAAGCAAUCGGUC [Fam1B.1 aminoacylation ribozyme variant]
target-entity: biotinyl-Leu-oxazolone
self-aminoacylation: 0.956

Would you mind listing self-aminoacylation for each of the following sequences?
1. AUUACCCUGAUCAUCGAGUGU [Fam2.1 aminoacylation ribozyme variant]
2. GUUACCCUGGUCAUUGAGUGA [Fam2.1 aminoacylation ribozyme variant]
3. AAGUUGGAUAAUAGUCGCAAG [Fam3.1 aminoacylation ribozyme variant]
4. AAGUGUGCUAAUAGUCCCAAG [Fam3.1 aminoacylation ribozyme variant]
5. AAGUUUGCUAAUAGCCGCACG [Fam3.1 aminoacylation ribozyme variant]
6. AAGUUUGCUAAAAGUCGGAAG [Fam3.1 aminoacylation ribozyme variant]

1: 3.28; 2: 11; 3: 0.984; 4: 1.24; 5: 1.32; 6: 0.778

Hello, I would appreciate it if you could give self-aminoacylation for each entry below.
1. AUUAACCUGGUAAUCGAGUGA [Fam2.1 aminoacylation ribozyme variant]
2. AUGUUUGCUAAUAGUCGCGAG [Fam3.1 aminoacylation ribozyme variant]
3. AUUACGCUGGUCAUCGUGUGA [Fam2.1 aminoacylation ribozyme variant]
4. AUUCACCGAGGUCACCGGGUG [Fam2.2 aminoacylation ribozyme variant]
5. AUUCACCUAGGUCGUCGCGUG [Fam2.2 aminoacylation ribozyme variant]
6. AUUGACCUAGAUCAUCGGGUG [Fam2.2 aminoacylation ribozyme variant]
7. AUUACCCUGGUCAUCGCGAGA [Fam2.1 aminoacylation ribozyme variant]
8. AUUCAACUAGGUGAUCGGGUG [Fam2.2 aminoacylation ribozyme variant]

1: 9.73; 2: 1.48; 3: 2.59; 4: 10.8; 5: 7.92; 6: 3.59; 7: 1.44; 8: 4.01

I need self-aminoacylation for every entry listed below, if you could help.
1. AAGUUUGCUAAUACUUGCAAG [Fam3.1 aminoacylation ribozyme variant]
2. AUUACACUGGUAAUCGAGUGA [Fam2.1 aminoacylation ribozyme variant]

1: 0.586; 2: 8.16

----------
# Tested on: biotinyl-Val-oxazolone
# assay-overview: self-aminoacylation, catalytic enhancement (BVO) (fold over background); higher = more active; k-Seq, kA / k0A0; sequences stand for … in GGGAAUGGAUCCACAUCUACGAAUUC…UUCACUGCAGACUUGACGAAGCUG
Fewer inactive variants are shown than the library holds.
Would you kindly list self-aminoacylation for each of these sequences?
One number for each entry.

residue-string: AUGUUUGCUAAGAGUCGCAAG [Fam3.1 aminoacylation ribozyme variant]
target-entity: biotinyl-Val-oxazolone
self-aminoacylation: 1.28

residue-string: AUUCACCUGGGUCAUCGGGUA [Fam2.2 aminoacylation ribozyme variant]
target-entity: biotinyl-Val-oxazolone
self-aminoacylation: 10.6

residue-string: ACUAACCUAGGUCAUCGGGUG [Fam2.2 aminoacylation ribozyme variant]
target-entity: biotinyl-Val-oxazolone
self-aminoacylation: 3.36

residue-string: AUCACCCUGGUGAUCGAGUGA [Fam2.1 aminoacylation ribozyme variant]
target-entity: biotinyl-Val-oxazolone
self-aminoacylation: 3.87

Proceeding to the next sequence to report its self-aminoacylation.
Find the recorded self-aminoacylation belonging to CCACACUUCGACCAAUCGGUC [Fam1B.1 aminoacylation ribozyme variant] and report it.
1.85

----------
Kindly supply the reported self-aminoacylation values for the records listed here.
# System: biotinyl-Ile-oxazolone
# assay-overview: self-aminoacylation, catalytic enhancement (BIO) (fold over background); higher = more active; k-Seq, kA / k0A0; sequences stand for … in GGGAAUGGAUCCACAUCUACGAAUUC…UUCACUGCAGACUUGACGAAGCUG
This sample holds only a part of the variants without activity.
Give bare numbers.

Solved entries (count: 3):
residue-string: CAACACUUCAGGCAAUCGGUC [Fam1B.1 aminoacylation ribozyme variant]
self-aminoacylation: 1.43
--
residue-string: CCACUUUUCAAGCAAUCGGUC [Fam1B.1 aminoacylation ribozyme variant]
self-aminoacylation: 1.25
--
residue-string: CUACUUCAAAGAAUUGGUCUG [Fam1A.1 aminoacylation ribozyme variant]
self-aminoacylation: 1.18

Next:
Param readout= self-aminoacylation; system= biotinyl-Ile-oxazolone; entry= CUACUUCGAACAAUCGGUGUG [Fam1A.1 aminoacylation ribozyme variant] ; returns value.
1.03

----------
# Tested on: biotinyl-Met-oxazolone
# assay-overview: self-aminoacylation, catalytic enhancement (BMO) (fold over background); higher = more active; k-Seq, kA / k0A0; sequences stand for … in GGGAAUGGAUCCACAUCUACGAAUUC…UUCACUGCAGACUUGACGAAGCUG
This sample holds only a part of the variants without activity.
endpoint-name: self-aminoacylation
Give bare numbers.

Sample records with self-aminoacylation:
residue-string: AUUUCCCUGGUCAUCUAGUGA [Fam2.1 aminoacylation ribozyme variant]
self-aminoacylation: 8.93
--
residue-string: AUUGCCCUGGUCAUCGAGUGG [Fam2.1 aminoacylation ribozyme variant]
self-aminoacylation: 30.9

Below are some sequences; for each one, tell me its self-aminoacylation.
1. CCACACUGCAAGCAAUAGGUC [Fam1B.1 aminoacylation ribozyme variant]
2. CUACAUCAAACAAUCGGUCUG [Fam1A.1 aminoacylation ribozyme variant]
3. AUUACCCUGGUCAUGGUGUGA [Fam2.1 aminoacylation ribozyme variant]
4. GCACACUUCAAGCAAUCGGCC [Fam1B.1 aminoacylation ribozyme variant]
5. AUUACCCUGCUUAUCGAGUGA [Fam2.1 aminoacylation ribozyme variant]
6. AUACACCGAGGUCAUCGGGUG [Fam2.2 aminoacylation ribozyme variant]
7. AUUCACCUAGGUCAUGGCGUG [Fam2.2 aminoacylation ribozyme variant]

[0.777, 0.759, 1.64, 2.99, 1.64, 5.37, 9.82]

----------
# Tested on: biotinyl-Phe-oxazolone
# assay-overview: self-aminoacylation, catalytic enhancement (BFO) (fold over background); higher = more active; k-Seq, kA / k0A0; sequences stand for … in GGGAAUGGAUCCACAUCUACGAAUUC…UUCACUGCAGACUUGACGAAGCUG
Variants at the floor of the assay were thinned out.
endpoint-name: self-aminoacylation
One number for each entry.

Count: 8. Required value per item: self-aminoacylation.
1. AUUCACCUACGUCCUCGGGUG [Fam2.2 aminoacylation ribozyme variant]
2. AUUACCAUGGUCAUCCAGUGA [Fam2.1 aminoacylation ribozyme variant]
3. AUUAGCAUGGUCAUCGAGUGA [Fam2.1 aminoacylation ribozyme variant]
4. AUUCACGUAGGUCCUCGGGUG [Fam2.2 aminoacylation ribozyme variant]
5. ACUACCCUGGUCUUCGAGUGA [Fam2.1 aminoacylation ribozyme variant]
6. AUUCACCCAGGUCACCGGGUG [Fam2.2 aminoacylation ribozyme variant]
7. CUACUUCAAUCAAUCGGUCUG [Fam1A.1 aminoacylation ribozyme variant]
8. CAACACUUCAAGCAACCGGUC [Fam1B.1 aminoacylation ribozyme variant]

[33.2, 28.2, 3.31, 64.9, 11.5, 39.4, 31.7, 1.59]

----------
# Tested on: biotinyl-Val-oxazolone
# assay-overview: self-aminoacylation, catalytic enhancement (BVO) (fold over background); higher = more active; k-Seq, kA / k0A0; sequences stand for … in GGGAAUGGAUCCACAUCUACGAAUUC…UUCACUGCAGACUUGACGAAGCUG
This sample holds only a part of the variants without activity.
Would you please tag the item Met when its self-aminoacylation is 3 or above, and Not met when it is below?

Use the examples below as a reference point.
residue-string: AUUCACCUAGGUCAUCGGUUA [Fam2.2 aminoacylation ribozyme variant]
discrete-label: Not met
--
residue-string: AUUCCCCUAGGUGAUCGGGUG [Fam2.2 aminoacylation ribozyme variant]
discrete-label: Met
--
residue-string: CCACACAUCAAGCAAUCGGUG [Fam1B.1 aminoacylation ribozyme variant]
discrete-label: Met
--
residue-string: CUACUUAAAACAAUAGGUCUG [Fam1A.1 aminoacylation ribozyme variant]
discrete-label: Not met

Now turn to the next sequence.
Is self-aminoacylation at least 3? Consider AUUACCCUGGUCUUCAAGUGA [Fam2.1 aminoacylation ribozyme variant]
Not met

----------
# Test system: biotinyl-Phe-oxazolone
# assay-overview: self-aminoacylation, catalytic enhancement (BFO) (fold over background); higher = more active; k-Seq, kA / k0A0; sequences stand for … in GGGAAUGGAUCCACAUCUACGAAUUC…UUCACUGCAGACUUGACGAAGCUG
This sample holds only a part of the variants without activity.
endpoint-name: self-aminoacylation
One number for each entry.

Answered examples (5):
residue-string: CUACUUCACACAAUCGUUCUG [Fam1A.1 aminoacylation ribozyme variant]
experimental-result: 0.66

residue-string: AAGUCUCCUAAUAGUCGCAAG [Fam3.1 aminoacylation ribozyme variant]
experimental-result: 3.11

residue-string: CUAGUUCAAACGAUCGGUCUG [Fam1A.1 aminoacylation ribozyme variant]
experimental-result: 0.559

residue-string: AAGUUCGCUCAUAGUCGCAAG [Fam3.1 aminoacylation ribozyme variant]
experimental-result: 7.56

residue-string: AAGUAUGCUAAUAGUCACAAG [Fam3.1 aminoacylation ribozyme variant]
experimental-result: 9.66

Take each entry in turn and give its self-aminoacylation.
1. AUUAGCCUGGUCACCGAGUGA [Fam2.1 aminoacylation ribozyme variant]
2. CAACUUCAAACAAUGGGUCUG [Fam1A.1 aminoacylation ribozyme variant]
3. AGUACCCUCGUCAUCGAGUGA [Fam2.1 aminoacylation ribozyme variant]
4. AUUCACCUAGGUCAUCGGAUA [Fam2.2 aminoacylation ribozyme variant]

1: 58.3; 2: 2.23; 3: 18.8; 4: 0.865
